Tested on: SEM cells
Method Summary: cell viability relative to DMSO control; higher = less cytotoxic
Applied Conditions: HPLM + 10% dialyzed FBS; 48 h; 15.4 µM

{"Smi": "O=C(NC[C@H](O)CO)c1ccncc1Nc1ccc(I)cc1F", "cell viability (%)": 85.4}
{"Smi": "COc1cc2ncnc(Nc3ccc(F)c(Cl)c3)c2cc1NC(=O)/C=C/CN1CCCCC1", "cell viability (%)": 71.4}
{"Smi": "COC(=O)[C@@H]1[C@H]2C[C@H]3c4[nH]c5ccccc5c4CCN3C[C@@H]2CC[C@@H]1O", "cell viability (%)": 120}
{"Smi": "CN1\\C(=C(\\O)C2=CC=CC=C2[S+]1([O-])=O)C(=O)NC3=NC=C(C)S3", "cell viability (%)": 96.7}
{"Smi": "C\\C1=C(\\C=C(\\C#N)C(=O)N1)C2=CC=NC=C2", "cell viability (%)": 126}
